system name: CDK2 (Homo sapiens)
Construct: endogenous in cells; host or cells: MDA-MB-231
test protocol: CDK protein degradation activity (Western blotting), CDK2
Assay type: cell-based
assay conditions: MDA-MB-231 cells, 0.1 μM, 16 hours, Western blot
observed property: Enzyme degradation CDK2 (% remaining) @ 0.1 μM (%)

A: COc1ccc(C(=O)N2CCC(CC(=O)N3CCN(c4ccc(Nc5ncnc6c5ncn6[C@H]5C[C@@H](NC(=O)Cc6ccccc6)C5)cc4)CC3)CC2)cc1N1CCC(=O)NC1=O [Compound 194]
B: O=C1CC[C@H](N2C(=O)c3ccc(N4CCC(C(=O)N5CCN(CCCC6CCN(c7ccc(Nc8ncnc9c8ncn9[C@H]8C[C@@H](NC(=O)Cc9ccccc9)C8)cc7)CC6)CC5)CC4)cc3C2=O)C(=O)N1 [Compound 367]
Query: For the pair A and B , which entry has the numerically smaller recorded Enzyme degradation CDK2 (% remaining) @ 0.1 μM? State your choice using its label.
Result: B

---

system name: CDK9 (Homo sapiens, UniProt P50750)
Construct: endogenous in cells; host or cells: MDA-MB-231
Sequence (P50750 whole entry): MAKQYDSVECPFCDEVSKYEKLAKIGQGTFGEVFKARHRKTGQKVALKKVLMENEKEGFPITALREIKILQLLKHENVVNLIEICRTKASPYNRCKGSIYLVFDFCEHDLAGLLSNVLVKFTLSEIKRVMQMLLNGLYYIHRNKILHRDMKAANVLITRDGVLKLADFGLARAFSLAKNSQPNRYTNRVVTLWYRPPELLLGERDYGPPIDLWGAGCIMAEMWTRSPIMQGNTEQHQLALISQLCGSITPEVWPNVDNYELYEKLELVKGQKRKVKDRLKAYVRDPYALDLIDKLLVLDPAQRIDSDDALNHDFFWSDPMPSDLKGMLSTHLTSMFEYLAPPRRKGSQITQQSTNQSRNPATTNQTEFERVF
test protocol: CDK protein degradation activity (Western blotting), CDK9
Type: cell-based
assay conditions: MDA-MB-231 cells, 0.1 μM, 16 hours, Western blot
# Lookup of reported Enzyme degradation CDK9 (% remaining) @ 0.1 μM keyed by entry

Some entries whose results are on file:
{"molecule": "N#Cc1cccc(C(=O)NC2CC(n3cnc4c(Nc5ccc(N6CCN(CC7CCN(C(=O)C8CCN(c9cc%10c(cc9F)C(=O)N([C@H]9CCC(=O)NC9=O)C%10=O)CC8)CC7)CC6)cc5)ncnc43)C2)n1 (stereo partly shown) [Compound 472]", "reported": "0/0/0%"}
{"molecule": "O=C1CC[C@@H](c2ccc(OCC(=O)N3CCC(CN4CCN(c5ccc(Nc6ncnc7c6ncn7C6CC(NC(=O)c7cccc(C(F)(F)F)n7)C6)cc5)CC4)CC3)cc2)C(=O)N1 (stereo partly shown) [Compound 436]", "reported": "10/10/10%"}
{"molecule": "O=C1CCC(N2C(=O)c3ccc(N4CCC(C(=O)N5CCC(CN6CCC(CCNc7ncnc8c7ncn8[C@H]7C[C@@H](NC(=O)c8c(Cl)cccc8Cl)C7)CC6)CC5)CC4)cc3C2=O)C(=O)N1 (stereo partly shown) [Compound 400]", "reported": "0/0/0%"}
{"molecule": "O=C1CC[C@H](N2C(=O)c3ccc(NCC(=O)N4CCN(CC5CCN(c6ccc(Nc7ncnc8c7ncn8[C@H]7C[C@@H](NC(=O)c8c(Cl)cccc8Cl)C7)cc6)CC5)CC4)cc3C2=O)C(=O)N1 [Compound 312]", "reported": "0/0/0%"}
{"molecule": "Cc1cccc(C(=O)NC2CC(n3cnc4c(Nc5ccc(N6CCN(CCC7CCN(c8cc9c(cc8F)C(=O)N([C@H]8CCC(=O)NC8=O)C9=O)CC7)CC6)cc5)ncnc43)C2)n1 (stereo partly shown) [Compound 381]", "reported": "0/0/0%"}

Query: Which Enzyme degradation CDK9 (% remaining) @ 0.1 μM is listed for Cc1cccc(C(=O)NC2CC(n3cnc4c(NCCC5CCN(CC6CCN(CC7CN(c8ccc9c(c8)C(=O)N([C@H]8CCC(=O)NC8=O)C9=O)C7)CC6)CC5)ncnc43)C2)n1 (stereo partly shown) [Compound 402] ?
Result: 0/0/0%

Query: Which Enzyme degradation CDK9 (% remaining) @ 0.1 μM is listed for O=C1CC[C@H](N2C(=O)c3ccc(N4CCC(CN5CCN(c6ccc(Nc7ncnc8c7ncn8[C@H]7C[C@@H](NC(=O)c8cccc(F)n8)C7)cc6)CC5)CC4)cc3C2=O)C(=O)N1 [Compound 390] ?
Result: 10%

Query: Which Enzyme degradation CDK9 (% remaining) @ 0.1 μM is listed for O=C1CC[C@H](N2C(=O)c3ccc(N4CCN(CC=CCN5CCC6(CC5)CC(N5CCN(c7ccc(Nc8ncnc9c8ncn9C8CC(NC(=O)Cc9ccccc9)C8)cc7)CC5)C6)CC4)cc3C2=O)C(=O)N1 (stereo partly shown) [Compound 479] ?
Result: 30%

Query: Which Enzyme degradation CDK9 (% remaining) @ 0.1 μM is listed for Cc1cccc(C(=O)NC2CC(n3cnc4c(Nc5ccc(N6CCN(CC7CCN(C(=O)CNc8cccc9c8C(=O)N([C@H]8CCC(=O)NC8=O)C9=O)CC7)CC6)cc5)ncnc43)C2)n1 (stereo partly shown) [Compound 93] ?
Result: 0/0/0%

Query: Which Enzyme degradation CDK9 (% remaining) @ 0.1 μM is listed for O=C1CC[C@@H](c2ccc(OCC(=O)N3CCC4(CC(N5CCN(c6ccc(Nc7ncnc8c7ncn8C7CC(NC(=O)Cc8ccccc8)C7)cc6)CC5)C4)C3)cc2)C(=O)N1 (stereo partly shown) [Compound 268] ?
Result: 70%

Query: Which Enzyme degradation CDK9 (% remaining) @ 0.1 μM is listed for O=C1CC[C@@H](c2ccc(OCC(=O)N3CCC4(CC3)CC(N3CCN(c5ccc(Nc6ncnc7c6ncn7[C@H]6C[C@@H](NC(=O)c7c(Cl)cccc7Cl)C6)cc5)CC3)C4)cc2)C(=O)N1 [Compound 442] ?
Result: 0/0/0%

Query: Which Enzyme degradation CDK9 (% remaining) @ 0.1 μM is listed for O=C1CCC(N2C(=O)c3cccc(CCCCN4CCC(CN5CCN(c6ccc(Nc7ncnc8c7ncn8[C@H]7C[C@@H](NC(=O)c8cccc(F)n8)C7)cc6)CC5)CC4)c3C2=O)C(=O)N1 (stereo partly shown) [Compound 432] ?
Result: 0/0/0%

Query: Which Enzyme degradation CDK9 (% remaining) @ 0.1 μM is listed for O=C1CC[C@@H](c2ccc(OCC(=O)N3CCC4(CC3)CC(N3CCN(c5ccc(Nc6ncnc7c6ncn7[C@H]6C[C@@H](NC(=O)c7cccc(C(F)(F)F)n7)C6)cc5)CC3)C4)cc2)C(=O)N1 [Compound 439] ?
Result: 10/10/10%

Query: Which Enzyme degradation CDK9 (% remaining) @ 0.1 μM is listed for Cc1cccc(C(=O)NC2CC(n3cnc4c(NCCC5CCN(CC6CCN(C(=O)C7CCN(c8ccc9c(c8)C(=O)N([C@H]8CCC(=O)NC8=O)C9=O)CC7)CC6)CC5)ncnc43)C2)n1 (stereo partly shown) [Compound 355] ?
Result: 10%

Query: Which Enzyme degradation CDK9 (% remaining) @ 0.1 μM is listed for Cc1cccc(C(=O)N[C@H]2C[C@@H](n3cnc4c(NCc5ccc(OCCCN6CCN(c7ccc8c(c7)C(=O)N(C7CCC(=O)NC7=O)C8=O)CC6)cc5)ncnc43)C2)n1 (stereo partly shown) [Compound 116] ?
Result: 10%

Query: Which Enzyme degradation CDK9 (% remaining) @ 0.1 μM is listed for O=C1CCC(N2C(=O)c3ccc(NCC(=O)N4CCC(CN5CCC(CNc6ncnc7c6ncn7[C@H]6C[C@@H](NC(=O)c7c(Cl)cccc7Cl)C6)CC5)CC4)cc3C2=O)C(=O)N1 (stereo partly shown) [Compound 171] ?
Result: 0/0/0%

Query: Which Enzyme degradation CDK9 (% remaining) @ 0.1 μM is listed for O=C1CC[C@@H](c2cccc(OCC(=O)N3CCC4(CC3)CC(N3CCN(c5ccc(Nc6ncnc7c6ncn7C6CC(NC(=O)Cc7ccccc7)C6)cc5)CC3)C4)c2)C(=O)N1 (stereo partly shown) [Compound 226] ?
Result: 0/0/0%

Query: Which Enzyme degradation CDK9 (% remaining) @ 0.1 μM is listed for O=C1CCC(N2C(=O)c3cccc(NCC(=O)N4CC(N5CCC6(CC5)CC(N5CCN(c7ccc(Nc8ncnc9c8ncn9[C@H]8C[C@@H](NC(=O)Cc9ccccc9)C8)cc7)CC5)C6)C4)c3C2=O)C(=O)N1 (stereo partly shown) [Compound 277] ?
Result: 0/0/0%

Query: Which Enzyme degradation CDK9 (% remaining) @ 0.1 μM is listed for O=C1CCC(N2C(=O)c3ccc(N4CC(C(=O)N5CCN(C6CN(c7ccc(Nc8ncnc9c8ncn9[C@H]8C[C@@H](NC(=O)Cc9ccccc9)C8)cc7)C6)CC5)C4)cc3C2=O)C(=O)N1 (stereo partly shown) [Compound 374] ?
Result: 30%
